B1: KRT71 (parent)
chain: FGSRSLYSLGGVRSLNVASGSGKS

Variants of: B1
Assay: protein stability index of a GFP-peptide fusion (GPS, HEK-293T) (PSI 1-6); higher = more stable;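 further: lentivirally expressed fusions sorted by FACS into six bins by GFP to DsRed ratio, PSI derived from sequencing read proportions per bin multiplied by bin number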
Settings: c terminus: a fixed tail appended
attribute measured: protein stability index
Returns: the value as a bare number; no unit string appended.

residue_change=G10M measured_number=2.09
residue_change=G2N measured_number=2.58
residue_change=S24Q measured_number=1.55
residue_change=S21F measured_number=1.73

Fill in reported protein stability index for this entry: S8V
2.23

Supply measured protein stability index of S19P in your reply.
1.8

Look up and report measured protein stability index for this entry: L15S
1.92
